Source of measurements: paper PMC9490041

experimental target: PSG (PSD-95), PDZ3-SH3-GK supramodule, wild type
experiment summary: FP
Ends that are not written are not given here. * marks the point of attachment. FITC = O=C1OC2(c3ccc(O)cc3Oc3cc(O)ccc32)c2ccc(NC(=S)*)cc21
assay readout: Kd (µM)
Numeric only. Scale: µM

Kindly indicate its recorded Kd. Item: {FITC}-PLVGQDIIDLQTEV [FITC-14 AA ADGRB1]
60
